- Tested on: MCF-7 breast adenocarcinoma cells
- EXPERIMENTAL_DETAILS: Cancer cell proliferation assay, single agent (cell viability)
- Type: cell-based
- DETAILS: Homo sapiens, MCF7, Table 4; Rb positive; treatment 144 Hr with medium change at 72 Hr; Cell Titer-Glo or resazurin
- Method: The effects of test compounds were studied in three breast cancer cell lines of different subtype. The cancer cells (Table 3) were harvested during the logarithmic growth period and counted. Cell concentrations were adjusted to the appropriate number with respective medium and 90 μL cell suspensions were added to 96-well plates. After cells were seeded, the plates were shaken gently to distribute cells evenly and incubated at 37° C., 5% CO2 on day 1. […]
pIC50: −log10 of the molar value.
READOUT_TYPE: pIC50

Sample answers from the record:
N#Cc1cc2cnc(Nc3ccc4c(c3)CCCNC4=O)nc2n(C2CCCC2)c1=O :: 6.52
CN1CCN(c2ccc(Nc3ncc4cc(C#N)c(=O)n(C5CCCC5)c4n3)cc2CO)CC1 :: 7.05
N#Cc1cc2cnc(Nc3ccc4c(c3)CCNC4)nc2n(C2CCC(F)(F)C2)c1=O (stereo not shown) :: 6.36
N#Cc1cc2cnc(NC3CCN(S(=O)(=O)c4ccc(F)cc4)CC3)nc2n(C2CCCC2)c1=O :: 6.51

a. CC(=O)N1CCc2cc(Nc3ncc4cc(C#N)c(=O)n(C5CCCC5)c4n3)ccc2C1
b. N#Cc1cc2cnc(Nc3cccc(S(=O)(=O)N4CCC(O)CC4)c3)nc2n(C2CCCC2)c1=O
stdin: Field: lower recorded pIC50 (choose a or b ) When you have decided, please share the label of that item.
stdout: b
(b: 5.85, a: 6.10)

1. N#Cc1cc2cnc(Nc3ccc4c(c3)CCCC(=O)N4)nc2n(C2CCCC2)c1=O
2. CN1CCC(c2ccc(Nc3ncc4cc(C#N)c(=O)n(C5CCCC5)c4n3)cc2)CC1
3. N#Cc1cc2cnc(NC3CCN(S(=O)(=O)C(F)(F)F)CC3)nc2n(C2CCCC2)c1=O
4. N#Cc1cc2ccc(Nc3ccc4c(c3)CNCC4)nc2n(C2CCCC2)c1=O
stdin: Put the items in order so that reported pIC50 rises from first to last. Labels, ranked as asked.
stdout: 4, 1, 3, 2
(4: 5.45, 1: 5.97, 3: 6.29, 2: 6.88)

a. CS(=O)(=O)N1CCC[C@@H](Nc2ncc3cc(C#N)c(=O)n(C4CCCC4)c3n2)C1
b. CN(C)CC(=O)N1CCc2cc(Nc3ncc4cc(C#N)c(=O)n(C5CCCC5)c4n3)ccc2C1
stdin: I'm curious whether a or b has the smaller pIC50 number. Which is it? Use the label to indicate which entry you chose.
stdout: a
